Just for reference, patent US9808527B2 is where these values come from.

System: MT-2 cells
Experiment: Cytotoxicity by MTT assay
Assay type: cell-based, Human
Settings: cytotoxicity, MTT assay, MT-2 cells; read-out: CC50
recorded_endpoint: CC50 (µM)
Number in µM, nothing else.

Reference set (2 entries):
{"columns": ["smiles_data", "CC50 (µM)"],
 "data": [
  ["CC(C)(C)NC(=O)[C@@H]1CN(Cc2cccnc2)CCN1C[C@@H](O)C[C@@H](Cc1ccccc1)C(=O)N[C@H]1c2ccccc2C[C@H]1O", 69.8],
  ["CC(C)(C)NC(=O)[C@@H]1C[C@@H]2CCCC[C@@H]2CN1C[C@@H](O)[C@H](Cc1ccccc1)NC(=O)[C@H](CC(N)=O)NC(=O)c1ccc2ccccc2n1", 16.4]
]}

Switching to the query record.
Problem: Looking for the measured CC50 of Cc1c(O)cccc1C(=O)N[C@@H](CSc1ccccc1)[C@H](O)CN1C[C@H]2CCCC[C@H]2C[C@H]1C(=O)NC(C)(C)C , can you help?
Result: 8.1

* * *

System: HIV-1MDR/JSL (R5)
Assay: microbe, parasite or virus in culture
Assay type: cell-based
Conditions: Human immunodeficiency virus 1, read-out: IC50 against HIV-1MDR/JSL (R5)
recorded_endpoint: pIC50
Bear in mind: pIC50 is minus log10 of a mol/L concentration; give just that figure.

Reference set (3 entries):
{"columns": ["molecule", "pIC50"],
 "data": [
  ["CC(C)(C)NC(=O)[C@@H]1C[C@@H]2CCCC[C@@H]2CN1C[C@@H](O)[C@H](Cc1ccccc1)NC(=O)[C@H](CC(N)=O)NC(=O)c1ccc2ccccc2n1", 6.54],
  ["CC(C)CN(CC(O)C(Cc1ccccc1)NC(=O)OC1COC2OCCC12)S(=O)(=O)c1ccc2c(c1)OCO2 (centres unmarked)", 8.22],
  ["COC(=O)N[C@H](C(=O)N[C@@H](Cc1ccccc1)[C@@H](O)CN(Cc1ccc(-c2ccccn2)cc1)NC(=O)[C@@H](NC(=O)OC)C(C)(C)C)C(C)(C)C", 6.27]
]}

Problem: Looking for the measured pIC50 of CC(C)CN(C[C@@H](O)[C@H](Cc1ccccc1)NC(=O)O[C@H]1CCOC1)S(=O)(=O)c1ccc(N)cc1 , can you help?
Result: 6.37

* * *

# pIC50 annotations
System: HIV-1ERS104pre (wild-type: X4)
Assay: p24 Gag production inhibition, PHA-PBMs, wild-type clinical isolate
Format: cell-based
Conditions: Human immunodeficiency virus 1, read-out: IC50 against HIV-1ERS104pre (wild-type: X4)
Bear in mind: pIC50 is minus log10 of a mol/L concentration; give just that figure.

{"columns": ["molecule", "pIC50"],
 "data": [
  ["CC(C)(C)NC(=O)[C@@H]1C[C@@H]2CCCC[C@@H]2CN1C[C@@H](O)[C@H](Cc1ccccc1)NC(=O)[C@H](CC(N)=O)NC(=O)c1ccc2ccccc2n1 [SQV, Saquinavir]", 8.10]
]}

Switching to the query record.
Problem: Looking for the measured pIC50 of COC(=O)N[C@H](C(=O)N[C@@H](Cc1ccccc1)[C@@H](O)CN(Cc1ccc(-c2ccccn2)cc1)NC(=O)[C@@H](NC(=O)OC)C(C)(C)C)C(C)(C)C [ATV, Atazanavir] , can you help?
Result: 8.42

* * *

Test system: multi-drug-resistant clinical HIV-1 variants
Test: p24 assay, PHA-PBMs, panel of multi-drug-resistant clinical HIV-1 isolates
Assay type: cell-based
Conditions: Human immunodeficiency virus 1, read-out: IC50 against multi-drug-resistant clinical HIV-1 strains, PHA-PBMs, p24 production
pIC50: −log10 of the molar value.
recorded_endpoint: pIC50

{"columns": ["compound", "experimental_value"],
 "data": [
  ["Cc1c(O)cccc1C(=O)N[C@@H](CSc1ccccc1)[C@H](O)CN1C[C@H]2CCCC[C@H]2C[C@H]1C(=O)NC(C)(C)C [NFV, Nelfinavir]", "< 6.00"]
]}

Problem: GET /values?readout=pIC50&system=multi-drug-resistant clinical HIV-1 variants&item= CC(C)c1nc(CN(C)C(=O)N[C@H](C(=O)N[C@@H](Cc2ccccc2)C[C@H](O)[C@H](Cc2ccccc2)NC(=O)OCc2cncs2)C(C)C)cs1 [RTV, ritonavir]
Result: < 6.00

Problem: And then CC(C)(C)NC(=O)[C@@H]1CN(Cc2cccnc2)CCN1C[C@@H](O)C[C@@H](Cc1ccccc1)C(=O)N[C@H]1c2ccccc2C[C@H]1O [IDV, indinavir] , what is it?
Result: < 6.00

Problem: And then CC(C)(C)NC(=O)[C@@H]1C[C@@H]2CCCC[C@@H]2CN1C[C@@H](O)[C@H](Cc1ccccc1)NC(=O)[C@H](CC(N)=O)NC(=O)c1ccc2ccccc2n1 [SQV, Saquinavir] , what is it?
Result: 6.54 to 6.85

Problem: And then CC(C)CN(CC(O)C(Cc1ccccc1)NC(=O)OC1COC2OCCC12)S(=O)(=O)c1ccc2c(c1)OCO2 (centres unmarked) [GRL-98065] , what is it?
Result: ≥ 8.22
